Assay: Compound was tested for the concentration of agent which reduces the supernatant protein concentration (tubulin, 1 mg/mL) by 50%; ED50/ED50taxol
Assay type: functional
measurement-label: Ratio
Numbers only.

Take a look at these entries with their results.
mol	Ratio
CC(=O)O[C@@H]1C2=C(C)[C@@H](OC(=O)[C@H](O)[C@@H](NC(=O)OC(C)(C)C)[C@H]3COC(C)(C)O3)C[C@@](O)([C@@H](OC(=O)c3ccccc3)[C@@H]3[C@]4(OC(C)=O)CO[C@@H]4C[C@H](O)[C@@]3(C)[C@H]1O)C2(C)C	7.91
CC[C@H](NC(=O)OC(C)(C)C)[C@@H](O)C(=O)O[C@H]1C[C@@]2(O)[C@@H](OC(=O)c3ccccc3)[C@@H]3[C@]4(OC(C)=O)CO[C@@H]4C[C@H](O)[C@@]3(C)[C@@H](O)[C@H](OC(C)=O)C(=C1C)C2(C)C	0.61
CC(=O)O[C@@H]1C2=C(C)[C@@H](OC(=O)[C@H](O)[C@H](C)NC(=O)OC(C)(C)C)C[C@@](O)([C@@H](OC(=O)c3ccccc3)[C@@H]3[C@]4(OC(C)=O)CO[C@@H]4C[C@H](O)[C@@]3(C)[C@H]1O)C2(C)C	1.08

Now examine the next entry.
Requested read-out: Ratio. Entry: CCCC[C@@H](NC(=O)OC(C)(C)C)[C@@H](O)C(=O)O[C@H]1C[C@@]2(O)[C@@H](OC(=O)c3ccccc3)[C@@H]3[C@]4(OC(C)=O)CO[C@@H]4C[C@H](O)[C@@]3(C)[C@@H](O)[C@H](OC(C)=O)C(=C1C)C2(C)C 9.74

====

Test: Compound was tested for the concentration of agent which reduces the supernatant protein concentration (tubulin, 1 mg/mL) by 50%; ED50/ED50taxol
Type: functional
I'd appreciate it if you could supply Ratio values for the items below.
Answers are plain numbers.

mol	result-value
CC(=O)O[C@@H]1C2=C(C)[C@@H](OC(=O)[C@H](O)[C@H](CC(C)C)NC(=O)OC(C)(C)C)C[C@@](O)([C@@H](OC(=O)c3ccccc3)[C@@H]3[C@]4(OC(C)=O)CO[C@@H]4C[C@H](O)[C@@]3(C)[C@H]1O)C2(C)C	0.95
CCCCC[C@H](NC(=O)OC(C)(C)C)[C@@H](O)C(=O)O[C@H]1C[C@@]2(O)[C@@H](OC(=O)c3ccccc3)[C@@H]3[C@]4(OC(C)=O)CO[C@@H]4C[C@H](O)[C@@]3(C)[C@@H](O)[C@H](OC(C)=O)C(=C1C)C2(C)C	2
CC(=O)O[C@@H]1C2=C(C)[C@@H](OC(=O)[C@H](O)[C@@H](NC(=O)OC(C)(C)C)c3ccccc3)C[C@@](O)([C@@H](OC(=O)c3ccccc3)[C@@H]3[C@]4(OC(C)=O)CO[C@@H]4C[C@H](O)[C@@]3(C)[C@H]1O)C2(C)C	0.87

Now examine the next entry.
Requested read-out: Ratio. Entry: CC(=O)O[C@@H]1C2=C(C)[C@@H](OC(=O)[C@H](O)[C@@H](NC(=O)OC(C)(C)C)C3CCCCC3)C[C@@](O)([C@@H](OC(=O)c3ccccc3)[C@@H]3[C@]4(OC(C)=O)CO[C@@H]4C[C@H](O)[C@@]3(C)[C@H]1O)C2(C)C 0.57

====

Test system: A549
Assay: In vitro cytotoxicity against A549 (human lung carcinoma) cell line.
Type: functional, cell-based
measurement-label: IC50

Take a look at these entries with their results.
molecule	result-value
CC(=O)O[C@@H]1C2=C(C)[C@@H](OC(=O)[C@H](O)[C@H](COc3ccccc3)NC(=O)c3ccccc3)C[C@@](O)([C@@H](OC(=O)c3ccccc3)[C@@H]3[C@]4(OC(C)=O)CO[C@@H]4C[C@H](O)[C@@]3(C)[C@H]1O)C2(C)C	0.092 µg/mL
C=C[C@H](NC(=O)OC(C)(C)C)[C@@H](O)C(=O)O[C@H]1C[C@@]2(O)[C@@H](OC(=O)c3ccccc3)[C@@H]3[C@]4(OC(C)=O)CO[C@@H]4C[C@H](O)[C@@]3(C)[C@@H](O)[C@H](OC(C)=O)C(=C1C)C2(C)C	0.0011 µg/mL
CC(=O)O[C@@H]1C2=C(C)[C@@H](OC(=O)[C@H](O)[C@@H](NC(=O)OC(C)(C)C)[C@H]3COC(C)(C)O3)C[C@@](O)([C@@H](OC(=O)c3ccccc3)[C@@H]3[C@]4(OC(C)=O)CO[C@@H]4C[C@H](O)[C@@]3(C)[C@H]1O)C2(C)C	> 0.1 µg/mL

Please go through the list and note IC50 for each molecule.
1. CC(=O)O[C@@H]1C2=C(C)[C@@H](OC(=O)[C@H](O)[C@H](CC(C)C)NC(=O)OC(C)(C)C)C[C@@](O)([C@@H](OC(=O)c3ccccc3)[C@@H]3[C@]4(OC(C)=O)CO[C@@H]4C[C@H](O)[C@@]3(C)[C@H]1O)C2(C)C
2. CC(=O)O[C@@H]1C2=C(C)[C@@H](OC(=O)[C@H](O)[C@@H](NC(=O)OC(C)(C)C)C3CCCCC3)C[C@@](O)([C@@H](OC(=O)c3ccccc3)[C@@H]3[C@]4(OC(C)=O)CO[C@@H]4C[C@H](O)[C@@]3(C)[C@H]1O)C2(C)C
3. CCCCC[C@H](NC(=O)OC(C)(C)C)[C@@H](O)C(=O)O[C@H]1C[C@@]2(O)[C@@H](OC(=O)c3ccccc3)[C@@H]3[C@]4(OC(C)=O)CO[C@@H]4C[C@H](O)[C@@]3(C)[C@@H](O)[C@H](OC(C)=O)C(=C1C)C2(C)C
4. CC(=O)O[C@@H]1C2=C(C)[C@@H](OC(=O)[C@H](O)[C@@H](NC(=O)c3ccccc3)c3ccccc3)C[C@@](O)([C@@H](OC(=O)c3ccccc3)[C@@H]3[C@]4(OC(C)=O)CO[C@@H]4C[C@H](O)[C@@]3(C)[C@H]1O)C2(C)C

["0.00012 µg/mL", "0.0065 µg/mL", "0.012 µg/mL", "0.019 µg/mL"]

Please go through the list and note IC50 for each molecule.
1. CC(=O)O[C@@H]1C2=C(C)[C@@H](OC(=O)[C@H](O)[C@@H](NC(=O)OC(C)(C)C)[C@H](O)CO)C[C@@](O)([C@@H](OC(=O)c3ccccc3)[C@@H]3[C@]4(OC(C)=O)CO[C@@H]4C[C@H](O)[C@@]3(C)[C@H]1O)C2(C)C
2. CC(=O)O[C@@H]1C2=C(C)[C@@H](OC(=O)[C@H](O)[C@@H](NC(=O)OC(C)(C)C)c3cscn3)C[C@@](O)([C@@H](OC(=O)c3ccccc3)[C@@H]3[C@]4(OC(C)=O)CO[C@@H]4C[C@H](O)[C@@]3(C)[C@H]1O)C2(C)C
3. CCCC[C@@H](NC(=O)OC(C)(C)C)[C@@H](O)C(=O)O[C@H]1C[C@@]2(O)[C@@H](OC(=O)c3ccccc3)[C@@H]3[C@]4(OC(C)=O)CO[C@@H]4C[C@H](O)[C@@]3(C)[C@@H](O)[C@H](OC(C)=O)C(=C1C)C2(C)C
4. CCCC[C@H](NC(=O)OC(C)(C)C)[C@@H](O)C(=O)O[C@H]1C[C@@]2(O)[C@@H](OC(=O)c3ccccc3)[C@@H]3[C@]4(OC(C)=O)CO[C@@H]4C[C@H](O)[C@@]3(C)[C@@H](O)[C@H](OC(C)=O)C(=C1C)C2(C)C
5. CC(=O)O[C@@H]1C2=C(C)[C@@H](OC(=O)[C@H](O)[C@H](C)NC(=O)OC(C)(C)C)C[C@@](O)([C@@H](OC(=O)c3ccccc3)[C@@H]3[C@]4(OC(C)=O)CO[C@@H]4C[C@H](O)[C@@]3(C)[C@H]1O)C2(C)C

> 0.1 µg/mL
0.0063 µg/mL
> 0.1 µg/mL
0.0095 µg/mL
0.015 µg/mL

Please go through the list and note IC50 for each molecule.
1. COC[C@H](NC(=O)c1ccccc1)[C@@H](O)C(=O)O[C@H]1C[C@@]2(O)[C@@H](OC(=O)c3ccccc3)[C@@H]3[C@]4(OC(C)=O)CO[C@@H]4C[C@H](O)[C@@]3(C)[C@@H](O)[C@H](OC(C)=O)C(=C1C)C2(C)C
2. CC(=O)O[C@@H]1C2=C(C)[C@@H](OC(=O)[C@H](O)[C@H](Cc3ccccc3)NC(=O)OC(C)(C)C)C[C@@](O)([C@@H](OC(=O)c3ccccc3)[C@@H]3[C@]4(OC(C)=O)CO[C@@H]4C[C@H](O)[C@@]3(C)[C@H]1O)C2(C)C
3. CC(=O)O[C@@H]1C2=C(C)[C@@H](OC(=O)[C@H](O)[C@@H](NC(=O)OC(C)(C)C)C(C)O)C[C@@](O)([C@@H](OC(=O)c3ccccc3)[C@@H]3[C@]4(OC(C)=O)CO[C@@H]4C[C@H](O)[C@@]3(C)[C@H]1O)C2(C)C (single isomer, unassigned)
4. CC(=O)O[C@@H]1C2=C(C)[C@@H](OC(=O)[C@H](O)[C@@H](NC(=O)OC(C)(C)C)c3ccccc3)C[C@@](O)([C@@H](OC(=O)c3ccccc3)[C@@H]3[C@]4(OC(C)=O)CO[C@@H]4C[C@H](O)[C@@]3(C)[C@H]1O)C2(C)C

> 0.1 µg/mL
> 0.1 µg/mL
> 0.1 µg/mL
0.003 µg/mL

Requested read-out: IC50. Entry: CC[C@H](NC(=O)OC(C)(C)C)[C@@H](O)C(=O)O[C@H]1C[C@@]2(O)[C@@H](OC(=O)c3ccccc3)[C@@H]3[C@]4(OC(C)=O)CO[C@@H]4C[C@H](O)[C@@]3(C)[C@@H](O)[C@H](OC(C)=O)C(=C1C)C2(C)C 0.00083 µg/mL
